target: purified recombinant human GAC (GLS1) (Homo sapiens (Human), UniProt O94925); assay: GLS1 Enzymatic Activity Assay (dual-coupled enzymatic assay, resorufin/Amplex UltraRed readout)
Sequence (O94925 other isoform, or with tags, fused parts or gaps): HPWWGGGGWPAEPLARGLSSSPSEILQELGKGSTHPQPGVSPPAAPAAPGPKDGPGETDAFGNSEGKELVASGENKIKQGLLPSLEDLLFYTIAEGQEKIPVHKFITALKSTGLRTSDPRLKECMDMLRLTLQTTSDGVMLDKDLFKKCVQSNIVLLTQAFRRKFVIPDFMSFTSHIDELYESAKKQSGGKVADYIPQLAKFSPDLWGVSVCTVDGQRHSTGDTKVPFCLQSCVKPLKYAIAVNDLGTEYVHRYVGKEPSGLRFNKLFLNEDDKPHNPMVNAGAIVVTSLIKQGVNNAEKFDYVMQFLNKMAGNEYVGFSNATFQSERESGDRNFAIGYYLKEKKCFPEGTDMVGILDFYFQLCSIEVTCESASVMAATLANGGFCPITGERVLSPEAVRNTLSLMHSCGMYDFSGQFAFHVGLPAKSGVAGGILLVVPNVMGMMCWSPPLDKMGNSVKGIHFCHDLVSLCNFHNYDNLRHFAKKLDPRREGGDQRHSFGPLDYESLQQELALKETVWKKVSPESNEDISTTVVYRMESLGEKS
Value Kind: IC50

IC50 reading for O=C(Cc1cccc(OC(F)(F)F)c1)Nc1nnc(CCC(F)Cn2cc(C(=O)NCc3ccc(C(F)(F)F)nc3)nn2)s1 (stereo not shown) [Example 498] : < 100 nM

CNC(=O)c1cn(CCC(F)Cn2cc(C(=O)NCc3ccccc3)nn2)nn1 (stereo not shown) [Example 165] has a reported IC50 of 100 to 500 nM

Noted for O=C(Cc1cccc(OC(F)(F)F)c1)Nc1cn(CCCCn2cc(C(=O)NCC3CC3)nn2)nn1 [Example 301] : its IC50 reads 100 to 500 nM

Data point: O=C(NCc1cncc(C(F)(F)F)c1)c1cn(CCCCn2cc(C(=O)NCC3CCC3)nn2)nn1 [Example 93] ; IC50 = 100 to 500 nM

response.value for O=C(Cc1ccn[nH]1)Nc1nnc(CCC(F)Cn2cc(C(=O)NCc3cc(OC(F)(F)F)ccc3F)nn2)s1 (stereo not shown) [Example 575] (field: IC50) = < 100 nM

Quick note, IC50 for CNC(=O)c1nnc(CCCCc2ccc(NC(=O)Cc3cc(OC(F)(F)F)ccc3F)nn2)s1 [Example 598] landed at < 100 nM

For O=C(Cc1cccc(OC(F)(F)F)c1)Nc1cn(CCC(F)Cn2cc(C(=O)NCc3ncccc3F)nn2)nn1 (stereo not shown) [Example 406] the compound record lists IC50 as < 100 nM

Notebook: O=C(Cc1cc(-c2cccc(OC(F)(F)F)c2)ccn1)Nc1ccc(CCCCn2cc(C(=O)NCCO)nn2)nn1 [Example 246] , IC50 read as < 100 nM

Notebook: O=C(NCc1cc(C(F)(F)F)ccn1)c1cn(CCCCn2cc(C(=O)NC3CCCC3)nn2)nn1 [Example 104] , IC50 read as 500 to 5000 nM

compound CNC(=O)c1cn(CCCCc2ccc(NC(=O)Cc3cc(-c4ccccc4C(F)(F)F)ccn3)nn2)nn1 [Example 605] , IC50 observed: < 100 nM

IC50 reading for O=C(NCc1ccccn1)c1cn(CCC(F)Cn2cc(C(=O)NCc3cc(OC(F)(F)F)ccc3F)nn2)nn1 (stereo not shown) [Example 373] : < 100 nM

Reported IC50 ( O=C(Cc1cc(OC(F)(F)F)ccc1F)Nc1nnc(CCC(F)Cn2cc(C(=O)NCc3ccc(C(F)(F)F)cn3)nn2)s1 (stereo not shown) [Example 516] ) = < 100 nM

The compound identified as CNC(=O)c1cn(CCCCc2ccc(NC(=O)Cc3cccc(C4=CCN(C(=O)OC(C)(C)C)CC4)c3)nn2)nn1 [Example 212] registered its IC50 at < 100 nM

Measured IC50, CNC(=O)c1nnc(CCC(F)Cn2cc(C(=O)NCc3cc(OC(F)(F)F)ccc3F)nn2)s1 (stereo not shown) [Example 555] : < 100 nM

Entry under test: O=C(Cc1ccccn1)Nc1nnc(CCC(F)Cn2cc(C(=O)NCc3cc(C(F)(F)F)ccn3)nn2)s1 (stereo not shown) [Example 540] . Its IC50 was < 100 nM

// O=C(NCc1ccc(F)cc1)c1cn(CCC(F)Cn2cc(C(=O)NCc3cc(C(F)(F)F)ccn3)nn2)nn1 (stereo not shown) [Example 459] : IC50 value = < 100 nM

Data point: CC(=O)Nc1ccc(CCCCc2nnc(C(=O)NCc3cncc(C(F)(F)F)c3)s2)nn1 [Example 602] ; IC50 = < 100 nM

For NC(=O)c1cn(CCCCc2ccc(NC(=O)Cc3cccc(OC(F)(F)F)c3)nn2)nn1 [Example 596] the compound record lists IC50 as < 100 nM

# IC50 of CC(C)NC(=O)c1cn(CCCCc2nnc(NC(=O)Cc3cccc(OC(F)(F)F)c3)s2)nn1 [Example 10] = 100 to 500 nM

Input O=C(NCc1cccc(OC(F)(F)F)c1)c1cn(CCCCc2nnc(C(=O)NCC3CC3)s2)nn1 [Example 59] . Output IC50: 100 to 500 nM

GET /value?item= O=C(NCc1cc(C(F)(F)F)ccn1)c1cn(CCC(F)Cn2cc(C(=O)NCc3ccccc3)nn2)nn1 (stereo not shown) [Example 450] &field=IC50 returns < 100 nM

Quick note, IC50 for O=C(Cc1cc(OC(F)(F)F)ccc1F)Nc1cn(CCCCn2cc(C(=O)NCc3cc(OC(F)(F)F)ccc3F)nn2)nn1 [Example 381] landed at < 100 nM

Form field IC50, entry O=C(Cc1cccc(OC(F)(F)F)c1)Nc1cn(CC(F)CCn2cc(C(=O)NCc3cccc(C(F)(F)F)n3)nn2)nn1 (stereo not shown) [Example 487] : < 100 nM

compound O=C(Cc1cccnc1)Nc1ccc(CCCCc2nnc(C(=O)NCc3ccccc3)s2)nn1 [Example 30] , IC50 observed: < 100 nM

Entry O=C(Cc1cc(OC(F)(F)F)ccc1F)Nc1cn(CCC(F)Cn2cc(C(=O)NCc3cccc(OC(F)(F)F)c3)nn2)nn1 (stereo not shown) [Example 416] , IC50 reported as < 100 nM

----------
Assignment: determine reported pIC50 for the given compounds.
target: purified recombinant human GAC (GLS1) (Homo sapiens (Human)); experiment: GLS1 Enzymatic Activity Assay (dual-coupled enzymatic assay, resorufin/Amplex UltraRed readout); type: biochemical
pIC50: −log10 of the molar value.

// recorded pIC50 for O=C(Nc1nnc(CCC(F)Cn2cc(C(=O)NCc3cc(OC(F)(F)F)ccc3F)nn2)s1)c1cccnc1 (centres unmarked) : > 7.00

Per the record, O=C(NCc1cc(C(F)(F)F)ccn1)c1cn(CC(F)CCc2nnc(C(=O)NCc3cc(OC(F)(F)F)ccc3F)s2)nn1 (centres unmarked) has pIC50 of > 7.00

So, CNC(=O)c1nnc(CCC(F)Cn2cc(C(=O)NCc3ccccc3)nn2)s1 (centres unmarked) ? Its pIC50 was 6.30 to 7.00

Form: compound = O=C(Cc1ccccc1)Nc1nnc(CCCCn2cc(C(=O)NCc3ccccc3)nn2)s1 ; pIC50 = > 7.00

pIC50 measured on CC1(C)Oc2ccc(CNC(=O)c3cn(CCCCn4cc(C(=O)NCc5cncc(C(F)(F)F)c5)nn4)nn3)cc2O1 = > 7.00

For reference, reported pIC50 for CNC(=O)c1cn(C[C@@H](F)CCc2nnc(NC(=O)Cc3cccc(OC(F)(F)F)c3)s2)nn1 [Example 239] stands at > 7.00

Record summary for O=C(Cc1cccc(OC(F)(F)F)c1)Nc1cn(CCCCn2cc(C(=O)NCC3CCCCC3)nn2)nn1 : reported pIC50 = > 7.00

pIC50 for O=C(Cc1cccc(OC(F)(F)F)c1)Nc1nnc(CCCCn2cc(C(=O)N[C@H](CO)c3ccccc3)nn2)s1 is > 7.00

Briefly, pIC50 measured for Cc1ccc(CC(=O)Nc2cn(CCC(F)Cn3cc(C(=O)NCc4cc(OC(F)(F)F)ccc4F)nn3)nn2)cn1 (centres unmarked) : > 7.00

Measured pIC50, O=C(NCc1cc(OC(F)(F)F)ccc1F)c1cn(CCC(F)Cn2cc(C(=O)NCc3cccc(C(F)(F)F)n3)nn2)nn1 (centres unmarked) : > 7.00

Form field pIC50, entry O=C(NCc1ccccc1)c1cn(CCCCn2cc(C(=O)NCc3cc(C(F)(F)F)ccn3)nn2)nn1 : 6.30 to 7.00

----------
target: purified recombinant human GAC (GLS1) (Homo sapiens (Human), UniProt O94925); test: GLS1 Enzymatic Activity Assay (dual-coupled enzymatic assay, resorufin/Amplex UltraRed readout);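 also: glutamate from GAC coupled via glutamate oxidase and peroxidase to resorufin, read as fluorescence (ex 530, em 590 nm) kinetically or at 20 min, four-parameter logistic IC50 fit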
pIC50: −log10 of the molar value.
For each of the molecules below, state its pIC50.

// recorded pIC50 for O=C(NCc1cccc(OC(F)(F)F)c1)c1cn(CCCCn2cc(C(=O)NCc3cc(C(F)(F)F)ccn3)nn2)nn1 : > 7.00

Please fill in: pIC50 reported for O=C(NCc1ccccn1)c1cn(CCCCn2cc(C(=O)NCc3ccccn3)nn2)nn1 = 5.30 to 6.30

Reported pIC50 ( CNC(=O)c1cn(CCC(F)Cn2cc(NC(=O)Cc3cccc(OC(F)(F)F)c3)nn2)nn1 (stereo not drawn) ) = > 7.00
